Attribution: patent US7371551B1

Listing of entries alongside the reported Activity (U/mg).
# System: homoserine transsuccinylase
# assay info: Homoserine transsuccinylase enzyme test using cell extracts, decrease in extinction at 232 nm, with and without L-methionine
# Assay type: biochemical, E. coli
# measurement conditions: cell extract of E. coli W3110 transformants; 1 mM homoserine, 0.1 mM succinyl-CoA, 50 mM Tris/Cl pH 7.6
Could you give me the number in U/mg? Just the number is fine.

Some molecules with recorded Activity (U/mg):
molecule	Activity (U/mg)
pSLmetAS: MetA variant with Ser instead of Asp at position 101 (protein, UniProt P07623 2-309, looked up, variant D101S) Homoserine …: PIRVPDELPAVNFLREENVFVMTTSRASGQEIRPLKVLILNLMPKKIETENQFLRLLSNSPLQVDIQLLRIDSRESRNTPAEHLNNFYCNFEDIQDQNFSGLIVTGAPLGLVEFNDVAYWPQIKQVLEWSKDHVTSTLFVCWAVQAALNILYGIPKQTRTEKLSGVYEHHILHPHALLTRGFDDSFLAPHSRYADFPAALIRDYTDLEILAETEEGDAYLFASKDKRIAFVTGHPEYDAQTLAQEFFRDVEAGLDPDVPYNYFPHNDPQNTPRASWRSHGNLLFTNWLNYYVYQITPYDLRHMNPTLD	0.027
pSLmetA*L: MetA variant with Leu instead of Tyr at position 294 (protein, UniProt P07623 2-309, looked up, variant Y294L) Homoserine …: PIRVPDELPAVNFLREENVFVMTTSRASGQEIRPLKVLILNLMPKKIETENQFLRLLSNSPLQVDIQLLRIDSRESRNTPAEHLNNFYCNFEDIQDQNFDGLIVTGAPLGLVEFNDVAYWPQIKQVLEWSKDHVTSTLFVCWAVQAALNILYGIPKQTRTEKLSGVYEHHILHPHALLTRGFDDSFLAPHSRYADFPAALIRDYTDLEILAETEEGDAYLFASKDKRIAFVTGHPEYDAQTLAQEFFRDVEAGLDPDVPYNYFPHNDPQNTPRASWRSHGNLLFTNWLNYYVLQITPYDLRHMNPTLD	0.070
pSLmetA*K: MetA variant with Lys instead of Tyr at position 294 (protein, UniProt P07623 2-309, looked up, variant Y294K) Homoserine …: PIRVPDELPAVNFLREENVFVMTTSRASGQEIRPLKVLILNLMPKKIETENQFLRLLSNSPLQVDIQLLRIDSRESRNTPAEHLNNFYCNFEDIQDQNFDGLIVTGAPLGLVEFNDVAYWPQIKQVLEWSKDHVTSTLFVCWAVQAALNILYGIPKQTRTEKLSGVYEHHILHPHALLTRGFDDSFLAPHSRYADFPAALIRDYTDLEILAETEEGDAYLFASKDKRIAFVTGHPEYDAQTLAQEFFRDVEAGLDPDVPYNYFPHNDPQNTPRASWRSHGNLLFTNWLNYYVKQITPYDLRHMNPTLD	0.048

Q) Could you share which Activity (U/mg) value was measured for pSLmetA*A: MetA variant with Ala instead of Tyr at position 294 (protein, UniProt P07623 2-309, looked up, variant Y294A) Homoserine …: PIRVPDELPAVNFLREENVFVMTTSRASGQEIRPLKVLILNLMPKKIETENQFLRLLSNSPLQVDIQLLRIDSRESRNTPAEHLNNFYCNFEDIQDQNFDGLIVTGAPLGLVEFNDVAYWPQIKQVLEWSKDHVTSTLFVCWAVQAALNILYGIPKQTRTEKLSGVYEHHILHPHALLTRGFDDSFLAPHSRYADFPAALIRDYTDLEILAETEEGDAYLFASKDKRIAFVTGHPEYDAQTLAQEFFRDVEAGLDPDVPYNYFPHNDPQNTPRASWRSHGNLLFTNWLNYYVAQITPYDLRHMNPTLD ?
A) 0.063
